Assay: Plasma pharmacokinetics of ixazomib after IV bolus
Type: in vivo, human
Conditions: human, plasma, iv, 2.34 mg/m2, C0, plasma, day 15; IV 2.34 mg/m^2; n=7, geometric mean (%CV)
Property Measured: C0 (µg/mL)
# unit: µg/mL | format: bare number

Dear colleague, please send me the reported C0 for CC(C)C[C@H](NC(=O)CNC(=O)c1cc(Cl)ccc1Cl)B(O)O when you can.
0.803

* * *

Test: Plasma pharmacokinetics of ixazomib after IV bolus
Assay type: in vivo, human
Conditions: human, plasma, iv, Terminal half-life, after multiple dosing, weekly IV
Property Measured: half-life

Dear colleague, please send me the reported half-life for CC(C)C[C@H](NC(=O)CNC(=O)c1cc(Cl)ccc1Cl)B(O)O [ixazomib] when you can.
96 to 288 h

* * *

Experiment: Urine pharmacokinetics of ixazomib
Assay type: in vivo, human
Conditions: human, urine, intravenous
Property Measured: CL renal

Dear colleague, please send me the reported CL renal for CC(C)C[C@H](NC(=O)CNC(=O)c1cc(Cl)ccc1Cl)B(O)O [ixazomib] when you can.
< 8.5 mL/min

* * *

Experiment: Plasma pharmacokinetics of ixazomib after IV bolus
Type: in vivo, human
Conditions: human, plasma, iv, 1.4 mg/m2, C0, plasma, day 1; IV 1.4 mg/m^2; n=4, geometric mean (%CV)
Property Measured: C0 (ng/mL)
# unit: ng/mL | format: bare number

Dear colleague, please send me the reported C0 for CC(C)C[C@H](NC(=O)CNC(=O)c1cc(Cl)ccc1Cl)B(O)O when you can.
714

* * *

Experiment: Plasma pharmacokinetics of ixazomib after IV bolus
Format: in vivo, human
Conditions: human, plasma, iv, 0.25 mg/m2, C0, plasma, day 1; IV 0.25 mg/m^2; n=1, individual value
Property Measured: C0 (ng/mL)
# unit: ng/mL | format: bare number

Dear colleague, please send me the reported C0 for CC(C)C[C@H](NC(=O)CNC(=O)c1cc(Cl)ccc1Cl)B(O)O when you can.
59.4

* * *

Experiment: Plasma pharmacokinetics of ixazomib after IV bolus
Assay type: in vivo, human
Details: human, plasma, iv, 1.76 mg/m2, C0, plasma, day 1; IV 1.76 mg/m^2; n=7, geometric mean (%CV)
Property Measured: C0 (ng/mL)
# unit: ng/mL | format: bare number

Dear colleague, please send me the reported C0 for CC(C)C[C@H](NC(=O)CNC(=O)c1cc(Cl)ccc1Cl)B(O)O when you can.
542

* * *

Assay: Plasma pharmacokinetics of ixazomib after IV bolus
Format: in vivo, human
Conditions: human, plasma, iv, 1.4 mg/m2, t½, terminal disposition phase half-life; day 15; IV 1.4 mg/m^2; n=4, geometric mean (%CV)
Property Measured: half-life (h)
# unit: h | format: bare number

Dear colleague, please send me the reported half-life for CC(C)C[C@H](NC(=O)CNC(=O)c1cc(Cl)ccc1Cl)B(O)O when you can.
209

* * *

Assay: Plasma pharmacokinetics of ixazomib after IV bolus
Assay type: in vivo, human
Conditions: human, plasma, iv, 1.76 mg/m2, C0, plasma, day 15; IV 1.76 mg/m^2; n=3, geometric mean (%CV)
Property Measured: C0 (ng/mL)
# unit: ng/mL | format: bare number

Dear colleague, please send me the reported C0 for CC(C)C[C@H](NC(=O)CNC(=O)c1cc(Cl)ccc1Cl)B(O)O [ixazomib] when you can.
499

* * *

Assay: Plasma pharmacokinetics of ixazomib after IV bolus
Format: in vivo, human
Details: human, plasma, iv, 1.4 mg/m2, C0, plasma, day 15; IV 1.4 mg/m^2; n=4, geometric mean (%CV)
Property Measured: C0 (ng/mL)
# unit: ng/mL | format: bare number

Dear colleague, please send me the reported C0 for CC(C)C[C@H](NC(=O)CNC(=O)c1cc(Cl)ccc1Cl)B(O)O when you can.
497

* * *

Assay: Plasma pharmacokinetics of ixazomib after IV bolus
Assay type: in vivo, human
Settings: human, plasma, iv, 2.34 mg/m2, t½, terminal disposition phase half-life; day 15; IV 2.34 mg/m^2; n=7, geometric mean (%CV)
Property Measured: half-life

Dear colleague, please send me the reported half-life for CC(C)C[C@H](NC(=O)CNC(=O)c1cc(Cl)ccc1Cl)B(O)O when you can.
108 h

* * *

Assay: Plasma pharmacokinetics of ixazomib after IV bolus
Type: in vivo, human
Details: human, plasma, iv, 3.11 mg/m2, t½, terminal disposition phase half-life; day 15; IV 3.11 mg/m^2; n=2, individual values
Property Measured: half-life
Answer with the value and then the unit.

Dear colleague, please send me the reported half-life for CC(C)C[C@H](NC(=O)CNC(=O)c1cc(Cl)ccc1Cl)B(O)O when you can.
97.9 h

Origin of the recorded values: paper PMC4220649
